Biological target: Folylpolyglutamate synthase, mitochondrial (Homo sapiens, UniProt Q05932)
Sequence (Q05932 whole entry): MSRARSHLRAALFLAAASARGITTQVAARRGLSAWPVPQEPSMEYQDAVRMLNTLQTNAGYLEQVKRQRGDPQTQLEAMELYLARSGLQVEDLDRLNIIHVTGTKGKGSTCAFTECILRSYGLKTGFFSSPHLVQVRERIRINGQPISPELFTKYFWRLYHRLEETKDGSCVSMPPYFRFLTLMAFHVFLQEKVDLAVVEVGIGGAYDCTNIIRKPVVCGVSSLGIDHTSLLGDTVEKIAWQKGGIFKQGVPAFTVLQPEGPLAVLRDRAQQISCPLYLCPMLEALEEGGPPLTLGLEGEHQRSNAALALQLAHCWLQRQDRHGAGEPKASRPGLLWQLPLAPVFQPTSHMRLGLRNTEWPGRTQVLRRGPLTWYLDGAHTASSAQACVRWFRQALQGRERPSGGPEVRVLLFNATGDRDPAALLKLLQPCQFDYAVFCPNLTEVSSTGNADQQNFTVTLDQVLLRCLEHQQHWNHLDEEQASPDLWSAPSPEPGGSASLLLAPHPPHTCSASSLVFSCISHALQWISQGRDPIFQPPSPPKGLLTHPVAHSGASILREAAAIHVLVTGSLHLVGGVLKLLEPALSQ
Assay: Binding affinity as Competitive substrate in the presence of […] aminopterin towards recombinant Human Folyl-polyglutamate synthase (FPGS)
EXPERIMENTAL READOUT: Ki

# COMPOUND, TARGET DESC, EXPERIMENTAL READOUT, ENDPOINT VALUE
rows = [
    ("NCCC[C@@H](C(=O)O)N1Cc2cc(NCc3cnc4nc(N)[nH]c(=O)c4c3)ccc2C1=O", "Folylpolyglutamate synthase, mitochondrial (Homo sapiens, UniProt Q05932)", "Ki", "110 µM"),
    ("NCCC[C@@H](C(=O)O)N1Cc2cc(NCC3CNc4nc(N)nc(O)c4C3)ccc2C1=O (some centres not stated)", "Folylpolyglutamate synthase, mitochondrial (Homo sapiens, UniProt Q05932)", "Ki", "0.2 µM"),
]
